tested on: KM12 colon; experiment: NCI-60 one-dose screen, 48 h; conditions: 10 µM unless noted
The panel holds about 83,000 compounds, 20% with a hit somewhere; the sample as a whole holds those more often. Activity calls are given as the source filed them. Rule for the calls: active = growth percent below 10; inactive = the rest.
Bench note: report the call from True for active, False for inactive

Past entries and their recorded results:
{"structure smiles": "O=C(CSc1nc2ccccc2c(=O)n1-c1ccccc1)Nc1ccc(S(=O)(=O)Nc2nccs2)cc1", "measurement target": "KM12 colon", "label": "False"}
{"structure smiles": "O=C(CCCCCCNC(=O)C(O)(O)C(F)(F)F)Nc1ccc(-c2ccccc2)cc1", "measurement target": "KM12 colon", "label": "True"}
{"structure smiles": "COc1cc(-c2nc(-c3ccccc3)[nH]c2-c2ccnc(NCCCNS(=O)(=O)c3cccc(F)c3)n2)ccc1F", "measurement target": "KM12 colon", "label": "False"}
{"structure smiles": "C=C(C)[C@@H]1CC[C@]2(C(=O)N3CCN(C)CC3)CC[C@]3(C)[C@H](CC[C@@H]4[C@@]5(C)CC[C@H](OP(=O)(OCC)OCC)C(C)(C)[C@@H]5CC[C@]43C)[C@@H]12", "measurement target": "KM12 colon", "label": "False"}
{"structure smiles": "NNc1nnc2nc(Nc3ccccc3)nc(Nc3ccc(S(N)(=O)=O)cc3)n12", "measurement target": "KM12 colon", "label": "False"}

### Prompt Look up the recorded call for Cc1ccc2c(n1)C(=O)C(Cl)=C(Nc1ccc(C(C)C)cc1)C2=O in this test.
### Response False

### Prompt Tell me the assay call for CC(=O)N(O)CCCCCNC(=O)CCC(=O)N(O)CCCCCNC(=O)CCC(=O)N(O)CCCCCN(CCCCCCCCCC[P+](c1ccccc1)(c1ccccc1)c1ccccc1)CCCCCCCCCC[P+](c1ccccc1)(c1ccccc1)c1ccccc1 please.
### Response True

### Prompt Entry NC(=O)c1ncn2c(=O)n(CCF)nnc12 : call = ?
### Response False

### Prompt Which outcome was assigned to CNc1sc(S(=O)(=O)NC)nc1S(=O)(=O)c1ccc(C)cc1 in this test?
### Response False

### Prompt Could you please tell me the result logged for CNC(=O)c1cc(-c2ccc(NC(=S)Nc3cccc(C(F)(F)F)c3)cc2)nc2cccnc12 in this assay?
### Response False

### Prompt Recorded test call requested for CCCc1[nH]c(-c2cc(N)ccc2Cl)c2c1C(=O)CCCC2
### Response False
